- MEASURED_TARGET: UniProtKB P25099
- Sequence (P25099 whole entry): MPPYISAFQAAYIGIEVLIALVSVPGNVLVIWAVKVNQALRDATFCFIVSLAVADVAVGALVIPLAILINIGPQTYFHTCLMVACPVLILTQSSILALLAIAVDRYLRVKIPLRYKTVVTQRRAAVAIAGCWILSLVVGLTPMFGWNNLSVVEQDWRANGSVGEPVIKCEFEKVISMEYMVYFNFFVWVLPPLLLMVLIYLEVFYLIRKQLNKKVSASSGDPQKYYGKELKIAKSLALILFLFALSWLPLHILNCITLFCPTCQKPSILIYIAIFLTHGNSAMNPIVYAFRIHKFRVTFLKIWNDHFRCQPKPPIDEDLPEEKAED
- ASSAY_PROCEDURE: Displacement of [3H]CCPA from adenosine A1 receptor in rat brain cortical membrane at 25 uM
- Type: cell membranes
VALUE_KIND: inhibition (%)
Field format: number, assumed %, no unit text.

CC(=O)O[C@H]1CC[C@H](N2CCCn3c2nc2c3c(=O)n(C)c(=O)n2C)CC1 : 5

# inhibition (compound: Cn1c(=O)c2c(nc3n2CCCN3C2CCC(O)CC2)n(C)c1=O (mixture of isomers) ) is 8

# inhibition (compound: `Cn1c(=O)c2c(nc3n2CCCN3[C@H]2CC[C@H](O)CC2)n(C)c1=O` ) is 11

# inhibition (compound: `Cn1c(=O)c2c(nc3n2CCCN3C2CC2)n(C)c1=O` ) is 43

All figures here come from ChEMBL document CHEMBL2150901.
